Experiment Description: Light transmittance at 400 nm of i-BPDA powder, 10 mass % in 2 N aqueous sodium hydroxide
Type: physicochemical
Study Conditions: light path 1 cm
Light Transmittance at 400 nm (i-BPDA) reference

{"Compound": "O=C1OC(=O)c2c1cccc2-c1cccc2c1C(=O)OC2=O [Example F4]", "Light Transmittance at 400 nm (i-BPDA) [%]": 93}
{"Compound": "O=C1OC(=O)c2c1cccc2-c1cccc2c1C(=O)OC2=O [Comparative Example F3, reference compound]", "Light Transmittance at 400 nm (i-BPDA) [%]": 66}
{"Compound": "O=C1OC(=O)c2c1cccc2-c1cccc2c1C(=O)OC2=O [Example F6]", "Light Transmittance at 400 nm (i-BPDA) [%]": 95}
{"Compound": "O=C1OC(=O)c2c1cccc2-c1cccc2c1C(=O)OC2=O [Example F1]", "Light Transmittance at 400 nm (i-BPDA) [%]": 91}
{"Compound": "O=C1OC(=O)c2c1cccc2-c1cccc2c1C(=O)OC2=O [Example F7]", "Light Transmittance at 400 nm (i-BPDA) [%]": 89}
